Measured values drawn from patent US5840684A for this set.

test system: Staphylococcus aureus S13E; type: cell-based

COMPOUND: CNC(CC(C)C)C(=O)NC1C(=O)NC(CC(N)=O)C(=O)NC2C(=O)NC3C(=O)NC(C(=O)NC(C(=O)O)c4cc(O)cc(O)c4-c4cc3ccc4O)C(OC3CC(C)(N)C(O)C(C)O3)c3ccc(c(Cl)c3)Oc3cc2cc(c3OC2OC(CO)C(O)C(O)C2OC2CC(C)(NCc3cccc(Oc4ccc(C(F)(F)F)cc4)c3)C(O)C(C)O2)Oc2ccc(cc2Cl)C1O (stereo not drawn)
MIC: 2 µg/mL

COMPOUND: CNC(CC(C)C)C(=O)NC1C(=O)NC(CC(N)=O)C(=O)NC2C(=O)NC3C(=O)NC(C(=O)NC(C(=O)O)c4cc(O)cc(O)c4-c4cc3ccc4O)C(OC3CC(C)(N)C(O)C(C)O3)c3ccc(c(Cl)c3)Oc3cc2cc(c3OC2OC(CO)C(O)C(O)C2OC2CC(C)(NCc3ccc(C(F)(F)F)cc3)C(O)C(C)O2)Oc2ccc(cc2Cl)C1O (stereo not drawn)
MIC: ≤ 0.06 µg/mL

COMPOUND: CNC(CC(C)C)C(=O)NC1C(=O)NC(CC(N)=O)C(=O)NC2C(=O)NC3C(=O)NC(C(=O)NC(C(=O)O)c4cc(O)cc(O)c4-c4cc3ccc4O)C(OC3CC(C)(N)C(O)C(C)O3)c3ccc(c(Cl)c3)Oc3cc2cc(c3OC2OC(CO)C(O)C(O)C2OC2CC(C)(NCc3ccnc4ccccc34)C(O)C(C)O2)Oc2ccc(cc2Cl)C1O (stereo not drawn)
MIC: 0.125 µg/mL

----------
test system: Staphylococcus aureus SA1199B; type: cell-based
Listed molecules paired with reported MIC

MOLECULE: CCCc1ccc(-c2ccc(CNC3(C)CC(OC4C(Oc5c6cc7cc5Oc5ccc(cc5Cl)C(OC5CC(C)(N)C(O)C(C)O5)C5NC(=O)C(NC(=O)C7NC(=O)C(CC(N)=O)NC(=O)C(NC(=O)C(CC(C)C)NC)C(O)c7ccc(c(Cl)c7)O6)c6ccc(O)c(c6)-c6c(O)cc(O)cc6C(C(=O)O)NC5=O)OC(CO)C(O)C4O)OC(C)C3O)cc2)cc1 (centres unmarked)
MIC: 2 µg/mL
//
MOLECULE: CNC(CC(C)C)C(=O)NC1C(=O)NC(CC(N)=O)C(=O)NC2C(=O)NC3C(=O)NC(C(=O)NC(C(=O)O)c4cc(O)cc(O)c4-c4cc3ccc4O)C(OC3CC(C)(N)C(O)C(C)O3)c3ccc(c(Cl)c3)Oc3cc2cc(c3OC2OC(CO)C(O)C(O)C2OC2CC(C)(NCc3cccc(Oc4ccc(Cl)cc4)c3)C(O)C(C)O2)Oc2ccc(cc2Cl)C1O (centres unmarked)
MIC: 1 µg/mL

----------
test system: vancomycin-resistant enterococci; test: broth micro-dilution, mean geometric MIC; assay type: cell-based, Enterococcus faecium and Enterococcus faecalis; conditions: enterococci, 24-hour incubation
TEST_READOUT: mean geometric MIC, Vancomycin Resistant Strains (µg/mL)

COMPOUND: CNC(CC(C)C)C(=O)NC1C(=O)NC(CC(N)=O)C(=O)NC2C(=O)NC3C(=O)NC(C(=O)NC(C(=O)O)c4cc(O)cc(O)c4-c4cc3ccc4O)C(OC3CC(C)(N)C(O)C(C)O3)c3ccc(c(Cl)c3)Oc3cc2cc(c3OC2OC(CO)C(O)C(O)C2OC2CC(C)(NCc3cc(OCc4ccccc4)ccc3OC)C(O)C(C)O2)Oc2ccc(cc2Cl)C1O (stereo not drawn)
TGT: vancomycin-resistant enterococci
TEST_VALUE: 0.84
--
COMPOUND: CNC(CC(C)C)C(=O)NC1C(=O)NC(CC(N)=O)C(=O)NC2C(=O)NC3C(=O)NC(C(=O)NC(C(=O)O)c4cc(O)cc(O)c4-c4cc3ccc4O)C(OC3CC(C)(N)C(O)C(C)O3)c3ccc(c(Cl)c3)Oc3cc2cc(c3OC2OC(CO)C(O)C(O)C2OC2CC(C)(NCC3CCCCC3)C(O)C(C)O2)Oc2ccc(cc2Cl)C1O (stereo not drawn)
TGT: vancomycin-resistant enterococci
TEST_VALUE: 23
--
COMPOUND: CNC(CC(C)C)C(=O)NC1C(=O)NC(CC(N)=O)C(=O)NC2C(=O)NC3C(=O)NC(C(=O)NC(C(=O)O)c4cc(O)cc(O)c4-c4cc3ccc4O)C(OC3CC(C)(N)C(O)C(C)O3)c3ccc(c(Cl)c3)Oc3cc2cc(c3OC2OC(CO)C(O)C(O)C2OC2CC(C)(NCCCCCCCCCCCCc3ccccc3)C(O)C(C)O2)Oc2ccc(cc2Cl)C1O (stereo not drawn)
TGT: vancomycin-resistant enterococci
TEST_VALUE: 2
